# System: MCF7
# Procedure text: Cytotoxicity against human MCF7 cells after 72 hrs in presence of CuCl2
# Assay type: functional, cell-based
# Conditions: MCF7, 72 h
Recorded endpoint: pIC50
# pIC50: negative log10 of molar concentration; output just the value

Recorded pIC50 of COC(=O)c1cccc2oc(-c3cccc4oc(-c5ccccc5O)nc34)nc12 , please.
5.92

====

# System: MCF7
# Procedure text: Cytotoxicity against human MCF7 cells after 24 hrs
# Format: functional, cell-based
# Conditions: MCF7, 24 h
Recorded endpoint: IC50 (µM)
State just the number; it will be interpreted in µM.

Recorded IC50 of COC(=O)c1cccc2oc(-c3cccc4oc(-c5ccccc5O)nc34)nc12 , please.
31

Recorded IC50 of CO[C@@]12[C@H](COC(N)=O)C3=C(C(=O)C(C)=C(N)C3=O)N1C[C@@H]1N[C@@H]12 [MITOMYCIN] , please.
5
